Overview of recorded koff for various binders
Target: T1, Human CD19-his protein (human, UniProt P15391 20-291)
T1 construct: bought protein; also called recombinant human CD19-His; CD19 full-length protein; not shown: His tag
T1 sequence (looked up): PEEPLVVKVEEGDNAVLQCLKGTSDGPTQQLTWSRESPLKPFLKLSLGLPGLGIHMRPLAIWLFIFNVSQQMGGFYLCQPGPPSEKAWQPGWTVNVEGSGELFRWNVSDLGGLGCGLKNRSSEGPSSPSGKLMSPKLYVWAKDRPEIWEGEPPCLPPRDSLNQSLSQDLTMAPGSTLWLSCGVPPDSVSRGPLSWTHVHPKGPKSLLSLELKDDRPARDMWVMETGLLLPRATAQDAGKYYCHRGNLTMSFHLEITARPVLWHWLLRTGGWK
Assay: SPR Biacore, Ab captured on Protein A, CD19-His analyte
Protocol: A sample buffer and a running buffer were HBS-EP+ (10 mM HEPES, 150 mM NaCl, 3 mM EDTA and 0.05% surfactant P20) (GE Healthcare; BR-1006-69). The flow-through cell was set to 25° C. The sample block was set to 16° C. […] In each cycle, an antibody to be detected was first captured with a Protein A chip, and then a single concentration of CD19 antigen protein was injected. […] The dissociation phase was monitored for up to 600 s and was triggered by switching from sample solution to running buffer. […]
Number first, unit second: that is the form wanted.

F5.2.9 (antibody, human IgG1, V domains shown, human-murine chimeric antibody, human IgG1 constant) VH: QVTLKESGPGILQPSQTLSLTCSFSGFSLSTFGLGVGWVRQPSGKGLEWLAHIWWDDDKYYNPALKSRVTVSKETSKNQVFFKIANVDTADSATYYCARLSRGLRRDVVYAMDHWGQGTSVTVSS VL: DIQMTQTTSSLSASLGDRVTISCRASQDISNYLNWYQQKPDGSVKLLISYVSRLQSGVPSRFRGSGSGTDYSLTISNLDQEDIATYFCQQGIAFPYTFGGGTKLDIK ... 0.000402 s⁻¹

Item under review: F4.152.7 (antibody, human IgG1, V domains shown, human-murine chimeric antibody, human IgG1 constant) VH: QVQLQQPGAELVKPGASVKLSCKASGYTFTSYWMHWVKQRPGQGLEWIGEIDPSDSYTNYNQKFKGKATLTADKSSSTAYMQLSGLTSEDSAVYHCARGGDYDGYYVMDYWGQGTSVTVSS VL: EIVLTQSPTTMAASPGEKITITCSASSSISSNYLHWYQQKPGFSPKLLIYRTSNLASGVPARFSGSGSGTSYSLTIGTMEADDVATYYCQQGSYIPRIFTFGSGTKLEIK . Reported koff?
8.9e-05 s⁻¹

Requested field: koff. Item: F4.125.12 (antibody, human IgG1, V domains shown, human-murine chimeric antibody, human IgG1 constant) VH: EVKLVESGGGLVQPGGSLKLSCAASGFTFSTYTMSWVRQTPEKRLEWVAFISSGGGHINYPDTVKGRFTISRDNAKNTLYLQMSSLKSEDTAMYYCARHSYWFFDVWGAGTTVTVSS VL: DVQITQSPSYLAASPGETITINCRASKNIDTYLAWYQEKPGKTNKLLIYSGSTLQSGIPSRFRGGGSGTDFTLTICSLEPEDFAMYYCQQHNEYPLTFGAGTKLELK
0.000204 s⁻¹

Which koff value is on record for F2.15.26 (antibody, human IgG1, V domains shown, human-murine chimeric antibody, human IgG1 constant) VH: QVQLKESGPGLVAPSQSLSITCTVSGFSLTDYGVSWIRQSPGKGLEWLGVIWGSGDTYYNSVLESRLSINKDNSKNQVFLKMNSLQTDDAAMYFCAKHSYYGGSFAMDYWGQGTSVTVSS VL: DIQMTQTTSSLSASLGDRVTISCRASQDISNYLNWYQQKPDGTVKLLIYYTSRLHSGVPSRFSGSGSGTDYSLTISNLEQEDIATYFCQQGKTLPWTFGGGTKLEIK ?
0.000229 s⁻¹

Give its koff value. Item: F4.180.1 (antibody, human IgG1, V domains shown, human-murine chimeric antibody, human IgG1 constant) VH: EVQLQQSAPELVKPGASVKMSCKTSGYTFTENIIHWVKQTHGKSLEWIGGINPDNGGTSYHQKFKGRTTLTIDKSSSTAYMELRSLTSDDSAVFFCARQAPLYWYFDIWGAGTTVTVSS VL: DIVLTQSPASLAVSLGQRATISCRASESVDSYGNSLMHWFQQKPGQPPRLLIYRASNLESGIPARFSGSGSRTDFTLTITPVEADDVATYYCQQSNEDPWTFGGGTKLEIK
8.52e-05 s⁻¹

Need koff, item F5.3.6 (antibody, human IgG1, V domains shown, human-murine chimeric antibody, human IgG1 constant) VH: DVQLQESGPGLVKPSQSQSLTCSVTGYSITSGYYWNWIRQFPGNKLEWMGYISYDGSNNYNPSLKNRISITRDTSKNQFFLKLNSVTTEDTVTYYCARAPLTGDRYWYFDVWGTGTTVTVSS VL: DIVLTQSPASLAVSLGQRATISCRASQSVSTSSYSYMHWYQQKPGQTPKLLIKYASNLKSGVPARFSGSGSGTDFTLNIHPVEEEDTATYYCQHSWEIPPTFGGGTKLEIK
0.000122 s⁻¹

Just for reference, patent US20250042994A1 is where these values come from.
